src = PubChem BioAssay AID1285

Test Name: APP 5'UTR translational reporter suppression – APP 5'UTR luciferase, SH-SY5Y cells, primary screen (AID 1285)
Applied Conditions: SH-SY5Y APP 5'UTR-luciferase reporter, luminescence; at 2 µM; active compounds read high
Out of some 190,000 compounds screened, about 1,600 (0.84%) were called active. Shown is part of a subset that was picked to be rich in actives.
Please respond with reported inhibition for every item in the list.
Numbers only, in %.

Below are 3 molecules. Give each one its inhibition.
1. COCc1c(C(=O)N/N=C/C2CC=CCC2)nnn1-c1nonc1N (stereo not drawn)
2. CCOC(=O)c1c(C)[nH]c(=S)c(C#N)c1-c1ccccc1
3. Cc1[nH]c2ccccc2c1C(=O)COC(=O)C(C)C

**A:**
1. 6.9
2. 17.1
3. -8.5
